System: T47D
ASSAY COMMENT: Microculture tetrazolium assay
Format: cell-based
PROTOCOL CONDITIONS: Homo sapiens, read-out: IC50
Each entry below carries its recorded pIC50.
FYI, pIC50 means -log10 of a concentration in mol per litre.

QUERY: Which pIC50 is reported with T47D for this entry: CC(=O)[C@@H]1CC2=C(C(=O)c3cc4ccccc4c(O)c3C2=O)[C@@H](O[C@H]2C[C@H](NC(=O)C(F)(F)F)[C@H](I)[C@H](C)O2)O1 [BCH-1617] ?
RESULT: 5.61

QUERY: // query: CC(=O)C1CC2=C(C(=O)c3cc4ccccc4c(O)c3C2=O)C(OC2CC(N=[N+]=[N-])C(I)C(C)O2)O1 (stereo not drawn) [BCH-1157]
RESULT: 4.42

QUERY: Same question for C[C@@H]1O[C@@H](O[C@@H]2OCCC3=C2C(=O)c2cc4ccccc4c(O)c2C3=O)C[C@H](NC(=O)C(F)(F)F)[C@@H]1O [BCH-1647] please.
RESULT: 6.06

QUERY: Next record, please: CC(=O)[C@@H]1CC2=C(C(=O)c3cc4ccccc4c(O)c3C2=O)[C@@H](O[C@H]2C[C@H](O)[C@H](O)[C@H](C)O2)O1 [BCH-1124]
RESULT: 5.22

QUERY: Same question, C[C@@H]1O[C@@H](O[C@H]2O[C@H](c3ccccc3)CC3=C2C(=O)c2cc4ccccc4c(O)c2C3=O)C[C@H](NC(=O)C(F)(F)F)[C@@H]1O [BCH-2010] this time
RESULT: 4.87

QUERY: Note, next up: COC(=O)C1CC2=C(CS1)C(=O)c1c(cc3ccccc3c1O)C2=O (stereo not drawn) [BCH-1150]
RESULT: 4.11

* * *

Test system: MATB/ADR
ASSAY COMMENT: Soft agar colony formation disk diffusion assay
Assay type: cell-based, rat
PROTOCOL CONDITIONS: 100 μg/DISK
Listed molecules paired with reported zone of inhibition
I only need the number, in Zone Units, no unit after it.

Below are worked cases with known answers.
molecule=COC(=O)[C@@H]1CC2=C(C(=O)c3c(cc4ccccc4c3O)C2=O)[C@@H](O[C@H]2C[C@H](NC(=O)C(F)(F)F)[C@H](O)[C@H](C)O2)O1 tested_on=MATB/ADR test_result=200.0
molecule="CCOC(=O)[C@@H]1CC2=C(C(=O)c3c(c(O)c4ccccc4c3OC(C)=O)C2=O)[C@@H](O)O1 (mixture of isomers)" tested_on=MATB/ADR test_result=0

QUERY: Please give the measured zone of inhibition for this molecule: CCOC(=O)C1Cc2c(OCC)c3c(c(O)c2C(O[C@H]2C[C@H](NC(=O)C(F)(F)F)[C@H](O)[C@H](C)O2)O1)C(=O)c1ccccc1C3=O (stereo partly shown)
RESULT: 155.5

QUERY: What about CCOC(=O)C1Cc2c(O)c3c(c(O)c2CS1)C(=O)c1ccccc1C3=O (stereo not shown) ?
RESULT: 0

* * *

Tested on: SKVLB
ASSAY COMMENT: Microculture tetrazolium assay
Type: cell-based
PROTOCOL CONDITIONS: IC50 ratio SKVLB/SKOV3
Dear colleague, classification is by VLB/OV3, with ranges listed here: low = under 1, intermediate = from 1 up to 3, high = 3 and over

Worked set:
molecule="C[C@@H]1O[C@@H](O[C@H]2O[C@H](C(=O)COC(=O)C(C)(C)C)CC3=C2C(=O)c2cc4ccccc4c(O)c2C3=O)C[C@H](NC(=O)C(F)(F)F)[C@@H]1O [BCH-1136]" group_label=intermediate
molecule="CC(=O)C1CC2=C(C(=O)c3cc4ccccc4c(O)c3C2=O)C(OCCN)S1 (stereo not drawn) [BCH-1628]" group_label=intermediate
molecule="C=CC1CC2=C(C(=O)c3cc4ccccc4c(O)c3C2=O)C(O[C@H]2C[C@H](N)[C@H](O)[C@H](C)O2)O1 (stereo partly drawn) [BCH-1611]" group_label=high
molecule="CC[C@@H]1Cc2c(O)c3c(c(O)c2[C@@H](O[C@H]2C[C@H](N)[C@H](O)[C@H](C)O2)O1)C(=O)c1ccccc1C3=O [BCH-2016]" group_label=high
molecule="C[C@@H]1O[C@@H](O[C@H]2OCCC3=C2C(=O)c2cc4ccccc4c(O)c2C3=O)C[C@H](NC(=O)C(F)(F)F)[C@@H]1O [BCH-1646]" group_label=intermediate
molecule="C=COC(=O)NCCCO[C@@H]1O[C@@H](C(C)=O)CC2=C1C(=O)c1cc3ccccc3c(O)c1C2=O (relative stereo) [BCH-2036]" group_label=high
molecule="CC(=O)[C@H]1CC2=C(C(=O)c3cc4ccccc4c(O)c3C2=O)[C@H](O[C@@H]2O[C@@H](C)[C@@H](O)[C@@H](NC(=O)C(F)(F)F)C2I)O1 (stereo partly drawn) [BCH-2064]" group_label=intermediate
molecule="C=CC[C@@H]1CC2=C(C(=O)c3cc4ccccc4c(O)c3C2=O)[C@@H](O[C@H]2C[C@H](NC(=O)C(F)(F)F)[C@H](O)[C@H](C)O2)O1 [BCH-1687]" group_label=intermediate

QUERY: Would you mind sorting CC1(C2CC3=C(CO2)C(=O)c2c(cc4ccccc4c2O)C3=O)OCCO1 (stereo not drawn) [BCH-1112] into the appropriate category?
RESULT: low

QUERY: What do we get for CC(=O)[C@@H]1CC2=C(C(=O)c3cc4ccccc4c(O)c3C2=O)[C@@H](O[C@H]2C[C@H](O)[C@H](O)[C@H](C)O2)O1 [BCH-1124] ?
RESULT: low

QUERY: Please answer likewise for CC[C@@H]1CC2=C(C(=O)c3cc4ccccc4c(O)c3C2=O)[C@@H](O[C@H]2C[C@H](NC(=O)C(F)(F)F)[C@H](O)[C@H](C)O2)O1 [BCH-1606]
RESULT: intermediate

QUERY: What about COC(=O)[C@@H]1CC2=C(C(=O)c3c(c(OC)c4ccccc4c3O)C2=O)[C@@H](O[C@H]2C[C@H](NC(=O)C(F)(F)F)[C@H](O)[C@H](C)O2)O1 (mixture of isomers) [BCH-674] ?
RESULT: low
